src = PubChem BioAssay

composite z-score: recorded values
- Assay explanation: compound binding in COS7 lysate, probe aLAP1, primary screen, cell lysate, small-molecule microarray (AID 1124);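 further: lysate comes from COS7 cells expressing LAP1 and is applied at 0.3 µg/mL; score merges spot fluorescence near 667 nm with signal-to-noise over triplicate slides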
- Cond: probe aLAP1, fluorescence, higher = more signal

Molecule	composite z-score
COc1ccc(C(O)C2C=CC3C(=O)NC(=O)C3N2Nc2ccccn2)cc1OCc1ccccc1 (centres undefined)	0.759
CN1C(=O)C2C=CC(C(O)c3ccccn3)N(Nc3ccccc3)C2C1=O (centres undefined)	0.456
N[C@@H](Cc1ccccc1)Cn1cc(-c2ccccc2)nn1	0.954
N#Cc1ccc(NN2C(C(O)c3cccs3)C=CC3C(=O)N(c4ccccc4)C(=O)C32)cc1 (centres undefined)	0.672
C=CCC(OC(C)=O)[C@@H]1[C@@H](N(Cc2cccc3ccccc23)C(=O)c2ccc(C)cc2)c2cc(OCCCO)ccc2N1C(=O)Cc1ccc(OC)cc1 (some centres undefined)	-0.0098
NC(=O)NCC#Cc1ccc2c(c1)[C@]1(C(=O)N2)[C@H](C(=O)N2CCCCCCC2)[C@H]2C(=O)O[C@H](c3ccccc3)[C@H](c3ccccc3)N2[C@@H]1c1ccc(OCCO)cc1	0.864
COCCOC(=O)N1C(=O)[C@@]2(c3cc(C#CCC(C(=O)OC)C(=O)OC)ccc31)[C@H](c1ccc(O)cc1)N1[C@H](c3ccccc3)[C@H](c3ccccc3)OC(=O)[C@H]1[C@@H]2C(N)=O	0.647
COc1ccc([Si](C)(C)[C@@H]2[C@@H](CCn3cc([C@H](O)c4ccccc4)nn3)O[C@]3(C(=O)N(Cc4ccc(N5C(=O)c6cccc7cccc5c67)cc4)c4ccccc43)[C@H]2C)cc1	0.017
C[C@H]1NC(=O)[C@H](Cc2ccccc2)NC(=O)[C@@]23C(=O)N[C@@H](Cc4ccccc4)C2[C@H](C)[C@@]2(C)O[C@H]2C3/C=C/C/C=C\CNC1=O (some centres undefined)	0.0584
COC(=O)[C@@]1(Cc2ccccc2)N=C(c2ccc(OCCCO)cc2)O[C@H]1c1ccccc1N=[N+]=[N-]	0.863
C=CCC(OC(C)=O)[C@@H]1[C@@H](N(Cc2ccc(-c3ccccc3)cc2)C(=O)Cc2ccc(OC)cc2)c2cc(OCCCO)ccc2N1C(=O)c1ccc2ccccc2n1 (some centres undefined)	0.123
COCCOC(=O)N1C(=O)[C@@]2(c3cc(C#CC4=CCCCC4)ccc31)[C@H](C(=O)NC[C@H](O)c1ccccc1)[C@H]1C(=O)O[C@H](c3ccccc3)[C@H](c3ccccc3)N1[C@@H]2c1ccc(O)cc1	0.992
CCCCCCCCCCC(O)C1C=CC2C(=O)N(Cc3ccccc3)C(=O)C2N1n1cnnc1 (centres undefined)	0.687
CC(C)CNC(=O)[C@@]1(c2ccc([N+](=O)[O-])cc2)CC(=O)N(CC23CC4CC(CC(C4)C2)C3)[C@@H]1c1ccc(CO)cc1	1.15
COc1cc2c(cc1OC)CN(C(=O)[C@@H]1[C@H]3C(=O)O[C@H](c4ccccc4)[C@H](c4ccccc4)N3[C@H](c3ccccc3OCCO)[C@@]13C(=O)Nc1ccc(C#CCNC(N)=O)cc13)CC2	1.15
O=C(OCCF)C1=CCC(c2cccc(Cl)c2)O1 (centres undefined)	0.142
Cc1ccc(S[C@]2(C(=O)NCC(C)C)CC(=O)N(Cc3ccccc3Cl)[C@@H]2c2ccc(CO)cc2)cc1	-0.0092
COc1ccc([Si](C)(C)[C@@H]2[C@@H](CC(=O)N(CCO)Cc3ccccc3)O[C@]3(C(=O)N(C)c4ccccc43)[C@H]2C)cc1	0.0123
Cc1ccc(S[C@]2(C(=O)NC3CC3)CC(=O)N(C3CCCCC3)[C@@H]2c2ccc(CO)cc2I)cc1	0.396
CC(C)OC(=O)CC(=O)CC(O)c1ccc(C#N)cc1 (centres undefined)	0.649
COc1ccc([Si](C)(C)[C@H]2[C@H](CCn3cc([C@H](O)c4ccccc4)nn3)O[C@@]3(C(=O)N(Cc4cccc(N5CCC5=O)c4)c4ccccc43)[C@@H]2C)cc1	-0.166
O=C1OCCC=C[C@H]2OC34C=CCN(Cc5ccccc5)C(=O)[C@H]3N(CCCCCCO)C(=O)[C@@H]4C12 (some centres undefined)	0.0054
CCOc1cc(C(O)C2C=CC3C(=O)N(c4ccccc4)C(=O)C3N2Nc2ccc([N+](=O)[O-])cc2)ccc1O (centres undefined)	0.502
CC(C)CNC(=O)[C@@]1(c2ccc([N+](=O)[O-])cc2)CC(=O)N(CC23CC4CC(CC(C4)C2)C3)[C@@H]1c1ccc(CO)cc1I	0.451
CC(=O)NCCCC[C@@H]1NC(=O)[C@@H]2C[C@H](C(=O)NCCCCN(C)C)[C@H](c3ccc(O)cc3)N2C1=O	0.765
O=C1N(CCS(=O)(=O)c2ccccc2)Cc2ccccc2[C@H]2OC(c3ccc(OCCCO)cc3)=N[C@@]12CCS(=O)(=O)c1ccccc1	0.708
CCOC(=O)C1=CCC(c2ccc([N+](=O)[O-])cc2)N(S(=O)(=O)c2ccc(C)cc2)C1 (centres undefined)	0.279
N#Cc1ccc(NN2C(C(O)c3ccc([N+](=O)[O-])cc3)C=CC3C(=O)N(c4ccccc4)C(=O)C32)cc1 (centres undefined)	0.833
Cc1cc(C)cc(N2C(=O)CS(=O)(=O)C2c2cccc([N+](=O)[O-])c2)c1 (centres undefined)	1.36
